Reference source for all entries: PubChem BioAssay (EPA / NIEHS)

experiment: BSK_3C_VCAM1: BioMAP Diversity Plus: 3C Assay for Vascular cell adhesion molecule 1 (VCAM1) Biomarker Activity (AID 2282999); settings: BioMAP 3C HUVEC, VCAM1 ELISA, cytokine-stimulated; actives raise or lower the signal
The source made the active and inactive calls. The calls were made as follows: active = hit-call score of the fitted dose curve at least 0.9, where 1 is the maximum; inactive = score below 0.9.
outcome_measure: outcome

COc1ccc2nc(N)sc2c1; inactive
O=C(c1ccc(O)cc1)c1ccc(O)cc1O; inactive
O=Nc1ccc(O)cc1; inactive

###

Assay: ATG_Ets_CIS: Attagene CIS-FACTORIAL HepG2 Assay for human Erythroblast Transformation Specific (ETS) (AID 2282941)
Conditions: HepG2 ETS cis-reporter transcription, actives raise or lower the signal
Description: ATG_CIS is a cell-based, multiplexed-readout assay that uses HepG2, a human liver cell line, with measurements taken at 24 hours after chemical dosing in a 24-well plate.ATG_Ets_CIS is one of 52 assay component(s) measured or calculated from the ATG_CIS assay. […] This assay endpoint, ATG_Ets_CIS, was analyzed with bidirectional fitting relative to DMSO as the negative control and baseline of activity. […]
Active and inactive are the calls of the source. The calls were made as follows: active = hit-call score of the fitted dose curve at least 0.9, where 1 is the maximum; inactive = score below 0.9.
Please reply with one of these outcomes: Yes (active), No (inactive)

C=CC(C)(CCC=C(C)C)OC(=O)C(C)C (centres undefined); No
CCCCCCCCCCCCCCCC[n+]1ccccc1; Yes
CN(C)c1ccc(N=Nc2ccccc2C(=O)O)cc1; No
CCCCC(CC)COC(=O)c1ccccc1O (centres undefined); No
CCCCCCC(O)CO (centres undefined); No
C[Si](C)(CCCN)O[Si](C)(C)CCCN; No

Assay outcome for `Cc1ccc(C(C)c2ccc(C)c(C)c2)cc1C` : what was it?
No

What about `C=CC(=O)OCCOC(=O)C=C` ?
Yes

Entry `C=CC=CC=CCCCCC` please
No

###

biological target: Paired box protein Pax-6 (Homo sapiens) (UniProt P26367); assay: ATG_Pax6_CIS: Attagene CIS-FACTORIAL HepG2 Assay for human Paired Box 6 (PAX6) (AID 2282956); settings: HepG2 CIS-FACTORIAL PAX6 reporter transcription, RNA readout; actives raise or lower the signal
Sequence (P26367 whole entry, looked up): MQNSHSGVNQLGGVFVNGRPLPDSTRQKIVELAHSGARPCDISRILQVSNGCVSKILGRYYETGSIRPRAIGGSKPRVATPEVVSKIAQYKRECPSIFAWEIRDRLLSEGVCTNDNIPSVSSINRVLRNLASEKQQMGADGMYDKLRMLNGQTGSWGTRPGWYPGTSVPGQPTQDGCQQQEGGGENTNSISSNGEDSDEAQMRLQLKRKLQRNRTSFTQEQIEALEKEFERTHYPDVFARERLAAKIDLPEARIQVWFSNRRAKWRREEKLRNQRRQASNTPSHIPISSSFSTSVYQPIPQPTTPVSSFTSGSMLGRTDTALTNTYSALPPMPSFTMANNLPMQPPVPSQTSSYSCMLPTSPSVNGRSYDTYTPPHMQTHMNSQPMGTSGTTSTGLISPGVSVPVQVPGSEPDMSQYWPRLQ
Activity calls are given as the source filed them. The calls were made as follows: active = hit-call score of the fitted dose curve at least 0.9, where 1 is the maximum; inactive = score below 0.9.
outcome_measure: AC50

Previously resolved entries follow.
c1cc(N(CC2CO2)CC2CO2)ccc1OCC1CO1 (stereo not drawn); 46.4 µM (active)
O=C1OC(=O)c2cc(Oc3ccc4c(c3)C(=O)OC4=O)ccc21; inactive
O=C1Nc2ccccc2C1(c1ccc(O)cc1)c1ccc(O)cc1; 70.7 µM (active)
COc1ccc([C@@H]2CC(=O)c3c(O)cc(O[C@@H]4O[C@H](CO[C@@H]5O[C@@H](C)[C@H](O)[C@@H](O)[C@H]5O)[C@@H](O)[C@H](O)[C@H]4O)cc3O2)cc1OC; inactive
CC(C)C(=O)C(C)C; 42.4 µM (active)
O=C(O)c1cc2ccccc2nc1C(=O)O; inactive

Reported AC50 for `[Cl][Bi]([Cl])([c]1ccccc1)([c]1ccccc1)[c]1ccccc1` : what is it?
5.48 µM (active)

Now the compound `O=C(O)Cc1c(Cl)ccc(Cl)c1Cl`
inactive

Request: `CCCCCCCCCCCCCCCC(=O)OCC`
inactive

What about this compound? `CCC(=O)Oc1ccc(/C(CC)=C(\CC)c2ccc(OC(=O)CC)cc2)cc1`
37.8 µM (active)

Note, next up: `O=Cc1ccc(CO)o1`
inactive

Similarly, `CCCCCCCCCCc1ccccc1` ?
inactive
